Where do these numbers come from? They come from patent US20200164023A1.

# experiment notes: Serum drug levels after single dose in mice
# Format: in vivo
# condition label: mouse, single dose 5 mg/kg, 6 hours, read-out: serum drug level
Numbered stars: 1 amine (or outer) side, 2 acyl side, 3 side chain; on linkers, the order of the positions; unused ones are H or OH. Bridge positions count the residues as written; N and C are the ends. Square brackets hold non-standard residues; d marks the D form. Peptide text beside a SMILES is read from it. * marks the point of attachment. hTyr(3S-OH,4S-OH,3'-OSO3H) = N[C@H](C(=O)O)[C@H](O)[C@@H](O)c1ccc(O)c(OS(=O)(=O)O)c1; Orn(4R-OH,5R-OH) = O=C([C@H](C[C@@H](O)[C@@H](O)N[*:3])N[*:1])[*:2]; Pro(3S-OH,4S-Me) = C[C@H]1CN[C@H](C(=O)O)[C@H]1O; X1 = CCCCCOc1ccc(-c2cc(-c3ccc(C(=O)*)cc3)no2)cc1; Gln(3R-OH) = NC(=O)C[C@@H](O)[C@H](N)C(=O)O; Hyp = O=C(O)[C@@H]1C[C@@H](O)CN1
readout type: concentration at 6 h

>>> result("CCCCCOc1ccc(-c2cc(-c3ccc(C(=O)N[C@H]4C[C@@H](O)[C@@H](O)NC(=O)[C@@H]5[C@@H](O)[C@@H](C)CN5C(=O)[C@H]([C@H](O)CC(N)=O)NC(=O)[C@H]([C@H](O)[C@@H](O)c5ccc(O)c(OS(=O)(=O)O)c5)NC(=O)[C@@H]5C[C@@H](O)CN5C(=O)[C@H]([C@@H](C)O)NC4=O)cc3)no2)cc1 [micafungin] (X1-[Orn(4R-OH,5R-OH)]T[Hyp][hTyr(3S-OH,4S-OH,3'-OSO3H)][Gln(3R-OH)][Pro(3S-OH,4S-Me)]; lactam 1-C)")
"7000 to 10000 ng/mL"

====

# experiment notes: Laser-capture microdissection and LC/MS-MS drug quantification in liver lesions and surrounding tissue, mouse IAC model
# Type: in vivo
# condition label: female, CD1, mouse, in vivo, ip, 5 mg/kg, single IP dose 5 mg/kg; 24 hours post-dose; read-out: drug concentration in liver lesions
# Method: A mouse model of IAC was used for this study. Female six to eight week old CD1 mice (Charles River Laboratories) weighing 18-22 g were infected intraperitoneally (IP) with 1×10^7 CFU of C. albicans SC5314 mixed with sterile stool matrix as previously described. […] Mice were sacrificed just before antifungal treatment (n=1), and at 1, 3, 6, 24, and 48 hours post-dose (three mice per group per time point). […]
Numbered stars: 1 amine (or outer) side, 2 acyl side, 3 side chain; on linkers, the order of the positions; unused ones are H or OH. Bridge positions count the residues as written; N and C are the ends. Square brackets hold non-standard residues; d marks the D form. Peptide text beside a SMILES is read from it. * marks the point of attachment. hTyr(3S-OH,4S-OH,3'-OSO3H) = N[C@H](C(=O)O)[C@H](O)[C@@H](O)c1ccc(O)c(OS(=O)(=O)O)c1; Orn(4R-OH,5R-OH) = O=C([C@H](C[C@@H](O)[C@@H](O)N[*:3])N[*:1])[*:2]; Pro(3S-OH,4S-Me) = C[C@H]1CN[C@H](C(=O)O)[C@H]1O; X1 = CCCCCOc1ccc(-c2cc(-c3ccc(C(=O)*)cc3)no2)cc1; Gln(3R-OH) = NC(=O)C[C@@H](O)[C@H](N)C(=O)O; Hyp = O=C(O)[C@@H]1C[C@@H](O)CN1
readout type: concentration at 24 h

>>> result("CCCCCOc1ccc(-c2cc(-c3ccc(C(=O)N[C@H]4C[C@@H](O)[C@@H](O)NC(=O)[C@@H]5[C@@H](O)[C@@H](C)CN5C(=O)[C@H]([C@H](O)CC(N)=O)NC(=O)[C@H]([C@H](O)[C@@H](O)c5ccc(O)c(OS(=O)(=O)O)c5)NC(=O)[C@@H]5C[C@@H](O)CN5C(=O)[C@H]([C@@H](C)O)NC4=O)cc3)no2)cc1 [micafungin] (X1-[Orn(4R-OH,5R-OH)]T[Hyp][hTyr(3S-OH,4S-OH,3'-OSO3H)][Gln(3R-OH)][Pro(3S-OH,4S-Me)]; lactam 1-C)")
"3400 ng/mL"
